These measurements were taken from the kinase profiling compilation of Christmann-Franck et al. (2016).

molecular target: MAP3K7 TAB1 (human) (UniProt O43318+Q15750); test: radiometric filter-binding kinase assay, Kinase HotSpot; conditions: compound 0.5 µM; ATP 10 µM
Sequence (O43318 whole entry, looked up): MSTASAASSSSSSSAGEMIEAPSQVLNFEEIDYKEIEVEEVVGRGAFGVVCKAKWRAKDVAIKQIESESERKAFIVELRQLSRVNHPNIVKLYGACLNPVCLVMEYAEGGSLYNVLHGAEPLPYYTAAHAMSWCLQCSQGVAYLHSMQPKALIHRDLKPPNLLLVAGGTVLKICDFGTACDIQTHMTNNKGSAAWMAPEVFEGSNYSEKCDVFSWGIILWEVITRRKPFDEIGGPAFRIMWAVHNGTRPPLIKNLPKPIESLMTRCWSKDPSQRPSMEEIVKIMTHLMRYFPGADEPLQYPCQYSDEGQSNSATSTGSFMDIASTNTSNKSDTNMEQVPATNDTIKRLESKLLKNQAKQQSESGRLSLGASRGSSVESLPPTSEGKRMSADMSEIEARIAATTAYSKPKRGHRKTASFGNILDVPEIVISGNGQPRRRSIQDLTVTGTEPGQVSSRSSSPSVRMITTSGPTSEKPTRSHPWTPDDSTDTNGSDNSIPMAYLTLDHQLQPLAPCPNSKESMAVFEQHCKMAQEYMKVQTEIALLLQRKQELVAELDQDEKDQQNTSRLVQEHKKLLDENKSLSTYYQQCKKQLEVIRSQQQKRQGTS
Sequence (Q15750 whole entry, looked up): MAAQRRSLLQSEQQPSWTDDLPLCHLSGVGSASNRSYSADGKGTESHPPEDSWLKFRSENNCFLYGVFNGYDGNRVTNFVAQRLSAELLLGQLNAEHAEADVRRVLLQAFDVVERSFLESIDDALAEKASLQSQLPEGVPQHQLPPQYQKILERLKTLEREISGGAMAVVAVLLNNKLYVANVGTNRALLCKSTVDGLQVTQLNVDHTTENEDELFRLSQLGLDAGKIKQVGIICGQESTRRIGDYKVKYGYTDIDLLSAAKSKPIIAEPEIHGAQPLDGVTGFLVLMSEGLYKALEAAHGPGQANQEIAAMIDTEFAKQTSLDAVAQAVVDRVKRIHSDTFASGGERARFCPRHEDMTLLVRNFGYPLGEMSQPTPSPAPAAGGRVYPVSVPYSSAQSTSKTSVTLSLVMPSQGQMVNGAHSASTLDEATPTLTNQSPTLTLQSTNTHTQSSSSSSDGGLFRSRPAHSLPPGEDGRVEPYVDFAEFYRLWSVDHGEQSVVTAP
Kindly state residual activity for each of the entries shown.
Numbers only, in %.

Answered examples (8):
MOLECULE	SYSTEM NAME	MEASURED NUMBER
O=C1Nc2ccccc2/C1=C\c1c(Cl)[nH]c2ccccc12	MAP3K7 TAB1 (human) (UniProt O43318+Q15750)	99.2
CCOc1nc(NC(=O)Cc2cc(OC)ccc2OC)cc(N)c1C#N	MAP3K7 TAB1 (human) (UniProt O43318+Q15750)	96.6
CC(C)[C@H](CO)Nc1nc(Nc2cccc(Cl)c2)c2ncn(C(C)C)c2n1	MAP3K7 TAB1 (human) (UniProt O43318+Q15750)	71.1
CCCNC(=O)Nc1ccc(Oc2ncnc3cc(OC)c(OC)cc23)cc1Cl	MAP3K7 TAB1 (human) (UniProt O43318+Q15750)	103
C#Cc1cccc(Nc2ncnc3cc(OCCOC)c(OCCOC)cc23)c1	MAP3K7 TAB1 (human) (UniProt O43318+Q15750)	88.8
CCN1/C(=C/C(C)=O)Sc2ccc(OC)cc21	MAP3K7 TAB1 (human) (UniProt O43318+Q15750)	99.9
O=C(Nc1ccc(Cl)cc1)c1ccccc1NCc1ccncc1	MAP3K7 TAB1 (human) (UniProt O43318+Q15750)	98.1
COc1cc2nccc(Oc3ccc(NC(=S)NC(=O)c4ccccc4C)cc3)c2cc1OC	MAP3K7 TAB1 (human) (UniProt O43318+Q15750)	95.6

Lab note: each molecule below needs its residual activity filled in.
1. O=C1Cc2c([nH]c3ccc([N+](=O)[O-])cc23)-c2ccccc2N1
2. O=c1cc(-c2cccc3c2Sc2ccccc2S3)oc(N2CCOCC2)c1
3. CS(=O)c1ccc(-c2nc(-c3ccc(F)cc3)c(-c3ccncc3)[nH]2)cc1 (centres undefined)
4. Cc1cc(Nc2cc(N3CCN(C)CC3)nc(Sc3ccc(NC(=O)C4CC4)cc3)n2)[nH]n1

1: 67.5; 2: 84.5; 3: 94; 4: 90.7

Give measured residual activity for every item shown.
1. COc1ccc(-c2cnc3c(-c4ccsc4)cnn3c2)cc1
2. NC(=O)c1ccc(N(C(N)=O)c2c(F)cccc2F)nc1-c1ccc(F)cc1F

97.6
105

----------
target: PRKCA (human) (UniProt P17252); assay: radiometric filter-binding kinase assay, Kinase HotSpot; settings: compound 0.5 µM; ATP 10 µM
OBSERVATION TYPE: residual activity (%)
One number for each entry, in %.

Solved cases (3 shown):
SMILES STRING	SYSTEM NAME	UNITS SYMBOL	residual activity
CC(C)[C@H](CO)Nc1nc(Nc2cccc(Cl)c2)c2ncn(C(C)C)c2n1	PRKCA (human) (UniProt P17252)	%	115
CC(C)(C)c1nc2c3ccc(F)cc3c3c(=O)[nH]ccc3c2[nH]1	PRKCA (human) (UniProt P17252)	%	65.6
Oc1ccc(-c2nc(-c3ccc(F)cc3)c(-c3ccncc3)[nH]2)cc1	PRKCA (human) (UniProt P17252)	%	102

# context switch: different compound, same residual activity
Could you tell me which residual activity is on file for `O=c1cc(N2CCNCC2)oc2c(-c3ccccc3)cccc12` ? 99.1
